measurement-notes: compound effects on differentiated 3T3-L1 adipocyte viability – cell-based, 3T3-L1 adipocytes, calcein-AM fluorescence, 48 h, basal, profiling panel (AID 1163); further: test concentration not given here
assay-conditions: 3T3-L1 adipocytes viability, higher = more signal
Binary label based on z-score with cut-off 0.06: below gives 1, not below gives 0.

Example entries and their recorded answers appear below.
{"compound": "COc1ccccc1CN1C(=O)c2ccccc2[C@](Cc2ccccc2I)(C(=O)NCC(C)C)[C@@H]1c1ccc(CO)cc1", "group-label": 0}
{"compound": "COc1ccc(C(O)C2C=CC3C(=O)N(C)C(=O)C3N2N(c2ccccc2)c2ccccc2)cc1 (stereo not drawn)", "group-label": 1}
{"compound": "Cc1ccc(N2C(=O)c3ccccc3[C@](C)(C(=O)NCCCN(C)C)[C@@H]2c2ccc(CO)cc2)nc1", "group-label": 0}
{"compound": "O=C1C[C@@](C(=O)O)(c2ccc([N+](=O)[O-])cc2)[C@@H](c2ccc(CO)cc2)N1C1CCCCC1", "group-label": 1}
{"compound": "CC(C)=CCCC(C)=CC(O)C1C=CC2C(=O)NC(=O)C2N1Nc1ccccn1 (stereo not drawn)", "group-label": 1}

# input Dear colleague, could you confirm whether z-score of O=C1C[C@]2(c3ccc([N+](=O)[O-])cc3)C(=O)N(C3CC3)c3cc(CO)ccc3[C@H]2N1C1CCCCC1 falls below 0.06? Thanks.
# output 1

# input Dear colleague, could you confirm whether z-score of CO[C@H]1O[C@H](CO)[C@@H](OC(=O)Nc2ccccc2)[C@H](OC(=O)Nc2ccccc2)[C@H]1OC(=O)Nc1ccccc1 falls below 0.06? Thanks.
# output 0

====

// composite z-score lookup, one value per entry
measurement-notes: probe aNOTCH3 binding on compound microarray – biochemical, small-molecule microarray, 635/667 nm fluorescence, primary screen (AID 1120);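 further: probe is a biotin-tagged antibody raised against NOTCH3 rather than NOTCH3 protein; score merges spot fluorescence near 667 nm with spot signal to noise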
assay-conditions: higher = more signal
// print number alone

Answered examples (3):
{"compound": "CC1CC/C=C\\[C@H]2OC34C=CCN(Cn5nnc6ccccc65)C(=O)[C@H]3N(CCCCCCO)C(=O)[C@@H]4C2C(=O)O1 (stereo partly drawn)", "composite z-score": -0.427}
{"compound": "C=CCC(OC(C)=O)[C@@H]1[C@@H](N(Cc2cccc3ccccc23)C(=O)c2ccc(-c3ccccc3)cc2)c2cc(OCCCO)ccc2N1C(=O)Cc1ccc2ccccc2c1 (stereo partly drawn)", "composite z-score": 0.0276}
{"compound": "C=C(COC)C(=O)CC[C@H](OC(=O)c1cccnc1)c1ccc(OCCO)cc1", "composite z-score": 0.201}

# input Quick one: composite z-score of COCCCNC(=O)[C@@H]1c2ccccc2C(=O)N(Cc2ccc(OC(F)(F)F)cc2)[C@H]1c1ccc(CO)cc1 ?
# output -0.0074

# input Quick one: composite z-score of CO[C@H]1O[C@H](CO)[C@@H](OC(=O)Nc2ccccc2-c2ccccc2)[C@H](OC(=O)Nc2ccccc2)[C@H]1OC(=O)Nc1ccccc1 ?
# output 0.199

====

assay-system: Focal adhesion kinase 1 (Homo sapiens)
measurement-notes: PTK2 protein binding on printed compound slides – biochemical, small-molecule microarray, 635/667 nm fluorescence, BSA, DTT, primary screen (AID 1130);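 further: composite of spot emission at 667 nm and signal to noise over triplicate slides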
assay-conditions: 635 nm fluorescence, higher = more signal
Each entry falls into one class according to its composite z-score; the ranges are low interval: < -0.05; middle interval: ≥ -0.05 and < 0.6; high interval: ≥ 0.6

{"compound": "O=C1C[C@@](C(=O)NCc2ccccc2)(c2ccc([N+](=O)[O-])cc2)[C@@H](c2ccc(CO)cc2)N1C1CCCCC1", "group-label": "high interval"}
{"compound": "CN(C)CCCC[C@@H]1NC(=O)[C@H]2C[C@@H](C(=O)O)[C@@H](c3ccc(O)cc3)N2C1=O", "group-label": "high interval"}
{"compound": "O=C1OCCC=C[C@H]2OC34C=CCN(c5ccc6ccccc6c5)C(=O)[C@H]3N(CCO)C(=O)[C@@H]4C12 (some centres undefined)", "group-label": "low interval"}
{"compound": "CN(C)C(=O)[C@]1(Cc2ccccc2)N=C(c2ccc(OCCCO)cc2)O[C@@H]1c1ccccc1CN=[N+]=[N-]", "group-label": "middle interval"}
{"compound": "COC(=O)C(CC#Cc1ccc2c(c1)[C@]1(C(=O)N2)[C@H](c2ccc(OCCO)cc2)N2[C@H](c3ccccc3)[C@H](c3ccccc3)OC(=O)[C@H]2[C@@H]1C(=O)N1CCCCCCC1)C(=O)OC", "group-label": "high interval"}

# input Category of COC(=O)C[C@H]1O[C@@]2(C[C@@H]1[Si](C)(C)C)C(=O)N(C)c1ccccc12 , please.
# output low interval

# input Category of COc1ccc([Si](C)(C)[C@@H]2[C@@H](CC(=O)N3CCC[C@H]3CO)O[C@]3(C(=O)N(Cc4cccc(N5CCCCC5=O)c4)c4ccccc43)[C@H]2C)cc1 , please.
# output middle interval

# input Category of CC1CC/C=C\[C@H]2OC34C=CCN(c5ccc(Cl)cc5)C(=O)[C@H]3N(CCCCCCO)C(=O)[C@]4(C)C2C(=O)O1 (some centres undefined) , please.
# output low interval

# input Category of C=C(CCCC)/C(=C/C[C@H](OC(C)=O)c1cccc(OCCO)c1)c1cnc2ccccc2c1 , please.
# output low interval

# input Category of C=CCN1C(=O)[C@]2(O[C@H](CCn3cc([C@H](O)c4ccccc4)nn3)[C@@H]([Si](C)(C)c3ccc(OC)cc3)[C@@H]2C)c2cc(NC(=O)c3ccc(OC)cc3)ccc21 , please.
# output high interval

# input Category of NC(=O)N1C(=O)C2C(C1=O)C1C=C(CCCO)C2C(C2CC2)N1Cc1sc2ccccc2c1Cl (centres undefined) , please.
# output middle interval

# input Category of C=C(C)[C@@H]1CC=C(C(O)C2C=CC3C(=O)N(c4ccccc4)C(=O)C3N2Nc2ccc([N+](=O)[O-])cc2)CC1 (some centres undefined) , please.
# output middle interval
